# procedureText: Cytotoxicity against human […] cells after 48 hrs by MTT assay
# Type: functional, cell-based
Listing of recorded IC50 by entry.

Recorded IC50, per entry:
{"compound": "CC(C)=CCC/C(C)=C/CC/C(C)=C/CC12C(=O)C=C(C)C(=O)C1(O)Oc1c3c(c(O)c(C)c12)O[C@](C)(CC/C=C(\\C)CCC=C(C)C)C=C3 (stereo partly drawn) [ALBATRELIN F]", "endpointLabel": "IC50", "experimentalResult": "> 40 µM"}
{"compound": "COC(=O)c1c(O)cc(O)c(C/C=C(\\C)CC/C=C(\\C)CCC=C(C)C)c1C [ALBATRELIN A]", "endpointLabel": "IC50", "experimentalResult": "> 40 µM"}

Alright, here's another compound for you.
The recorded IC50 for entry CC(C)=CCC/C(C)=C/CC[C@]1(C)C=Cc2c(C)cc(O)cc2O1 [ALBATRELIN C] equals > 40 µM

====

# Test system: MCF7
# procedureText: Cytotoxicity against human MCF7 cells after 48 hrs by MTT assay
# Type: functional, cell-based
# assayContext: MCF7, 48 h
pIC50: −log10 of the molar value.
Listing of recorded pIC50 by entry.

Record COc1cc(C)c(O)c2c1C=C[C@@](C)(CC/C=C(\C)CCC=C(C)C)O2 has MCF7 pIC50 equal to < 4.40

====

# procedureText: Cytotoxicity against human […] cells after 48 hrs by MTT assay
# Assay type: functional, cell-based
pIC50: −log10 of the molar value.
endpointLabel: pIC50

{"compound": "CC(C)=CCC/C(C)=C/CC/C(C)=C/CC1=C(O)C(=O)C(C)=C(c2c(O)cc(O)c(C/C=C(\\C)CC/C=C(\\C)CCC=C(C)C)c2C)C1=O [ALBATRELIN E]", "pIC50": "< 4.40"}
{"compound": "CC(C)=CCC/C(C)=C/CC/C(C)=C/Cc1c(O)cc(C)c2c1oc1c3c(c(O)c(C)c12)O[C@](C)(CC/C=C(\\C)CCC=C(C)C)C=C3 [ALBATRELIN D]", "pIC50": "< 4.40"}
{"compound": "COc1cc(C)c(O)c2c1C=C[C@@](C)(CC/C=C(\\C)CCC=C(C)C)O2 [ALBATRELIN B]", "pIC50": "< 4.40"}

The recorded pIC50 for entry CC(C)=CCC/C(C)=C/CC[C@]1(C)C=Cc2c(O)cc(C)cc2O1 [CONFLUENTIN] equals 4.77

====

Listing of recorded pIC50 by entry.
# Test system: MCF7
# procedureText: Cytotoxicity against human MCF7 cells after 48 hrs by MTT assay
# Format: functional, cell-based
# assayContext: MCF7, 48 h
pIC50: −log10 of the molar value.

Recorded pIC50, per entry:
{"molecule": "CC(C)=CCC/C(C)=C/CC[C@]1(C)C=Cc2c(C)cc(O)cc2O1 [ALBATRELIN C]", "experimentalResult": "< 4.40"}
{"molecule": "CC(C)=CCC/C(C)=C/CC/C(C)=C/CC12C(=O)C=C(C)C(=O)C1(O)Oc1c3c(c(O)c(C)c12)O[C@](C)(CC/C=C(\\C)CCC=C(C)C)C=C3 (stereo partly specified) [ALBATRELIN F]", "experimentalResult": "< 4.40"}

Alright, here's another molecule for you.
The recorded pIC50 for entry CC(C)=CCC/C(C)=C/CC/C(C)=C/Cc1c(O)cc(C)c2c1oc1c3c(c(O)c(C)c12)O[C@](C)(CC/C=C(\C)CCC=C(C)C)C=C3 [ALBATRELIN D] equals < 4.40
